// provenance: paper PMC8347709

test: LogD7.4 by shake-flask method; format: physicochemical; details: n-octanol/phosphate-buffered saline, n-octanol/PBS pH 7.4, room temperature
parameter: logD
Give the figure only, with no unit attached.

Incoming: Given C[C@H]1CC[C@@H](NC(=O)c2cc3cccnc3n(CCCC[18F])c2=O)CC1 [[^18F]LU14] , state its recorded logD.
Outgoing: 3.15
